tested on: Raji; test: Inhibition of 12-O-tetradecanoylphorbol-13-acetate-induced EBV-early antigen activation in human Raji cells assessed as early antigen induction at 1000 molar ratio after 48 hrs by conventional indirect immunofluorescence technique relative to TPA; assay type: cell-based; parameters: scale not given: the % may be the effect or the level left; conditions: human gammaherpesvirus 4
Binary label based on Activity with cut-off 20%: below gives true, not below gives false.

// known answers, use as guide
CCCCCCCCCCCC(=O)OCC(COC(=O)CCCCCCCCCCC)O[C@@H]1O[C@H](CS(=O)(=O)[O-])[C@@H](O)[C@H](O)[C@H]1O.[Na+] false
CCCCCC(=O)OC[C@H](CO)O[C@@H]1O[C@H](COC(=O)CCCCC)[C@@H](O)[C@H](O)[C@H]1O true
CCCCCC(=O)OCC(COC(=O)CCCCC)O[C@@H]1O[C@H](CO)[C@@H](O)[C@H](O)[C@H]1O true
CCCCCC(=O)OCCO[C@@H]1O[C@H](CO)[C@H](O)[C@H](O)[C@H]1O true
CCCCCCCCCCCCCCCCCC(=O)OCC(COC(=O)CCCCCCCCCCCCCCCCC)O[C@@H]1O[C@H](CS(=O)(=O)[O-])[C@@H](O)[C@H](O)[C@H]1O.[Na+] false

Ask: Quick check: does CCCCCCCCCCCC(=O)OCC(COC(=O)CCCCCCCCCCC)O[C@@H]1O[C@H](CO)[C@@H](O)[C@H](O)[C@H]1O have Activity under 20%?
Result: true

Ask: Repeat for the following compound: CCCCCCCCCCCCCCCCCC(=O)OCC(COC(=O)CCCCCCCCCCCCCCCCC)O[C@@H]1O[C@H](CO)[C@@H](O)[C@H](O)[C@H]1O
Result: true
